Assay read-out Ki on Interstitial collagenase (Homo sapiens, UniProt P03956); records merged from the literature.
Report only the number, with the unit µM understood.

Some molecules with known Ki results, for comparison:
Asked: Dear colleague, I am looking for the recorded Ki of the following molecule: COc1ccc(CCC[C@H](CC(=O)NO)C(=O)N[C@@H](CC2CCCCC2)C(=O)NCCc2ccccc2)cc1
Given back: 1.53

Asked: Could you share which Ki value was measured for O=C(C[C@@H](CCCc1ccccc1)C(=O)N[C@@H](CC1CCCCC1)C(=O)NCCc1ccccc1)NO ?
Given back: 0.203

Asked: Sample CCCCCCC(CC(=O)O)S(=O)(=O)N[C@@H](Cc1ccc(OC)cc1)C(=O)NC (some centres undefined) — what was its Ki?
Given back: 11.2

New cases:
Asked: # Ki lookup, item CNC(=O)[C@H](Cc1ccccc1)NC(=O)Nc1nnc(S)s1
Given back: 31

Asked: Need Ki of O=C(C[C@@H](Cc1ccc(O)cc1)C(=O)N[C@H]1c2ccccc2C[C@H]1O)NO , thanks.
Given back: 0.946

Asked: Name the recorded Ki for C[C@](O)(C(=O)NO)[C@@H](CCCc1ccccc1)C(=O)N[C@@H](Cc1ccccc1)C(=O)O .
Given back: 0.167

* * *

Endpoint summary: Ki, system: Interstitial collagenase (Homo sapiens, UniProt P03956), multiple sources combined.

// worked examples, Ki included
Asked: // fetch Interstitial collagenase (Homo sapiens, UniProt P03956) Ki for Cc1cc(COc2ccc(S(=O)(=O)CC3(CC(=O)NO)CCCN(CC(C)C)C3)cc2)c2ccccc2n1 (stereo unspecified)
Given back: > 4.9 µM

Asked: Test system Interstitial collagenase (Homo sapiens, UniProt P03956); read-out Ki; what value for COc1ccc2c(c1)NCCN(CC(=O)NO)S2(=O)=O ?
Given back: > 4.95 µM

Asked: What reported Ki corresponds to Cc1cc(C)cc(C(=O)Nc2ccc3c(c2)NCCN([C@H](C)C(=O)NO)S3(=O)=O)c1 on Interstitial collagenase (Homo sapiens, UniProt P03956)?
Given back: > 4.95 µM

Asked: Notebook entry, Interstitial collagenase (Homo sapiens, UniProt P03956) assay: Ki of CCC[C@@H](C(=O)NO)[C@H]1CCN(c2ccc(OCc3cc(C)nc4ccccc34)cc2)C1=O = ?
Given back: > 5 µM

Asked: Tell me reported Ki for CC(C)C[C@H](NC(=O)[C@H](CCc1ccccc1)CP(=O)(O)CCCCNC(=O)OCc1ccccc1)C(=O)Nc1ccccc1 , tested with Interstitial collagenase (Homo sapiens, UniProt P03956).
Given back: ≥ 10 µM

Shift focus to the following entry.
Asked: Test system Interstitial collagenase (Homo sapiens, UniProt P03956); read-out Ki; what value for CC(C)c1nc2ccccc2n1Cc1ccc(C(=O)N[C@@H]2CCC[C@@H]2C(=O)NO)cc1 ?
Given back: > 4.95 µM

* * *

Published pKi for the protein given by its sequence, assembled from different documents, is shown next.
Target protein (sequence): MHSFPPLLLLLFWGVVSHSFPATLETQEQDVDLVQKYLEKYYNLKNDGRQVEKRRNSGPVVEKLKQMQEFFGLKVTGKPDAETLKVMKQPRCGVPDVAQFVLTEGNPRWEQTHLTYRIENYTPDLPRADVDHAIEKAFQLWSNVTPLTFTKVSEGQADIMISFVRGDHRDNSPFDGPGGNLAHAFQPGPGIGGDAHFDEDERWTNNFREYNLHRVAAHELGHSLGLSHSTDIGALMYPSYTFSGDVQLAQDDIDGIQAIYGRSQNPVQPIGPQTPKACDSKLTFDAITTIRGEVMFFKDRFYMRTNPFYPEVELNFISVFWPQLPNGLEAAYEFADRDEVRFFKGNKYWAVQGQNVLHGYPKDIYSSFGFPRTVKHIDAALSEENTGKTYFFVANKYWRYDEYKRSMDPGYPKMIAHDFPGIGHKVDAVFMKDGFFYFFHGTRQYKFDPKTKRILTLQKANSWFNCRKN
pKi: −log10 of the molar value.

Asked: Fill in: pKi of CC(C)c1nc2ccccc2n1Cc1ccc(C(=O)N[C@@H]2CN(C(=O)OC(C)(C)C)C[C@@H]2C(=O)NO)cc1 is ___
Given back: < 5.67

Asked: Look up pKi: Cc1cc(COc2ccc(N3CC[C@H]([C@@H](C(=O)NO)N(C)C)C3=O)cc2)c2ccccc2n1
Given back: < 5.30

Asked: Tell me the measured pKi of Cc1cc(COc2ccc(C[C@]3(C(N)=O)C[C@@H]3C(=O)NO)cc2)c2ccccc2n1 , please.
Given back: < 2.00

Continue with the molecule presented below.
Asked: I would be grateful if you could share the reported pKi for C[C@H](C(=O)NO)N1CC[C@@](C)(c2ccc(OCc3ccccc3)cc2)C1=O .
Given back: < 5.30
